// IC50 lookup, one value per entry
- System: PC-3
- RUN_DESCRIPTION: Cytotoxicity against human PC-3 cells assessed as cell viability inhibition for 48 hrs by MTT assay
- Format: functional, cell-based
- ASSAY_SETUP: PC-3, 48 h
Counter-ions that a name gives are not always drawn.
Note: unit µM is implicit; provide only the numeric part.

Solved entries (count: 6):
{"MOLECULE": "CC1(C)Oc2cc(O)cc(CCc3ccccc3)c2C2=C1OC1c3c(CCc4ccccc4)cc(O)cc3OC(C)(C)C21 (racemic)", "IC50 / µM": 3.4}
{"MOLECULE": "CC1(C)C=Cc2c(cc3c(c2CCc2ccccc2)C2(C(=O)O3)c3c(CCc4ccccc4)cc(O)cc3OC2(C)C)O1 (racemic)", "IC50 / µM": 1.4}
{"MOLECULE": "CC1(C)Oc2cc(O)cc(CCc3ccccc3)c2C(C2=Cc3c(CCc4ccccc4)cc(O)cc3OC2(C)C)C1=O (racemic)", "IC50 / µM": 4.1}
{"MOLECULE": "CC1(C)Oc2cc(O)cc(CCc3ccccc3)c2C2OC3c4c(CCc5ccccc5)cc(O)cc4OC(C)(C)C3C21 (racemic)", "IC50 / µM": 3.5}
{"MOLECULE": "CC1(C)Oc2cc(O)cc(CCc3ccccc3)c2C2=C1O[C@@H]1c3c(CCc4ccccc4)cc(O)cc3OC(C)(C)[C@H]21", "IC50 / µM": 3.2}
{"MOLECULE": "COc1cccc2c1C(=O)c1c(O)c3c(c(O)c1C2=O)C[C@@](O)(C(=O)CO)C[C@@H]3O[C@H]1C[C@H](N)[C@H](O)[C@H](C)O1 [DOXORUBICIN HYDROCHLORIDE]", "IC50 / µM": 0.4}

Indicate its recorded IC50; the molecule in question is CC12CC(c3c(CCc4ccccc4)cc(O)cc3O1)C1C(C2)c2c(CCc3ccccc3)cc(O)cc2OC1(C)C (racemic)
5.4

Indicate its recorded IC50; the molecule in question is CC1=CC2c3c(CCc4ccccc4)cc(O)cc3OC(c3c(O)cc(O)cc3CCc3ccccc3)C2C(C)(C)C1 (racemic)
8.2

Indicate its recorded IC50; the molecule in question is CC1(C)C=Cc2c(CCc3ccccc3)cc(O)c(C3CC(C)(C)Oc4cc(O)cc(CCc5ccccc5)c43)c2O1 (racemic)
8.2

Indicate its recorded IC50; the molecule in question is CC(C)=CCc1c(O)cc2c(c1CCc1ccccc1)C1(C(=O)O2)c2c(CCc3ccccc3)cc(O)cc2OC1(C)C (racemic)
1.5
